Quick reference for growth among some compounds
# Tested on: HS 578T breast
# TEST: NCI-60 one-dose screen, 48 h (100 = growth as untreated, 0 = no growth, -100 = all killed)
# CONDITION INFO: 10 µM
This is part of a sample that, as a whole, favours compounds with a hit. Of some 83,000 tested, about 20% had one in any assay.
Give the value in % but do not write % after it.

COMPOUND | RECORDED MEASUREMENT
O=C(O)CCCCCCCCCCN1C(=O)/C(=C/c2cnc(-c3ccccc3)s2)SC1=S | 117
O=C1NC(=NC2CCCCCC2)N/C1=C\c1ccc2ncoc2c1 | 42
CCOc1ccc(/C=N/NC(=O)Cn2nc(Cc3ccccc3)c3onc(C)c3c2=O)cc1 | -12.7
COc1ccc2nc(Nc3cccc(NC(=O)c4ccc(CN5CCN(C)CC5)c(C(F)(F)F)c4)c3)ccc2c1 | -23.1

State its growth on HS 578T breast: O=C(NC(=S)N1CCN(c2ncnc3c2cnn3-c2ccccc2)CC1)c1ccc(Cl)cc1
32.7

Param readout = growth; param system = HS 578T breast; param query = Oc1ccc(/C=C2\CCCc3cc4ccc(O)cc4[o+]c32)c(O)c1 ; response: value
52.3

What is its growth for HS 578T breast? Entry: CCCCSc1nc(Nc2ccc(/C(C)=N/NC(N)=S)cc2)c(C#N)c(-c2ccccc2)n1
43.6

Find the measured growth: item Cc1ccc(NC(=O)NCn2c(=O)[nH]c3ccccc3c2=O)cc1 , target or system HS 578T breast.
55.3

Give growth (HS 578T breast) of the following compound: CN(C)c1cccc2c(S(=O)(=O)Nc3cccc(-c4csc(NC(=O)CCCCCN5CCN(c6cc7c(cc6F)C(=O)N(C6CCC(=O)NC6=O)C7=O)CC5)n4)c3)cccc12 (centres undefined)
70.4

---

# Test system: HCT-116 colon
# TEST: NCI-60 one-dose screen, 48 h
# CONDITION INFO: 10 µM
Compounds without any hit were thinned out: in the full panel of roughly 83,000, 20% have a hit. The source made the active and inactive calls. The calls were made as follows: active = growth percent below 10; inactive = the rest.
Valid outcomes are listed here; reply with one: active, inactive

Past entries and their recorded results:
MOLECULE | CLASSIFICATION
COc1ccc2cc([C@H](C)C(=O)NCc3ccccc3)ccc2c1 | inactive
COc1ccc2nc(Cl)c(-c3cc(-c4ccccc4)nc(=O)[nH]3)cc2c1 | active

Test call for this molecule, please: C#CCNC(=O)CCC(=O)OC[C@]12CC[C@@H](C(=C)C)[C@@H]1C1CC[C@@H]3[C@@]4(C)CCCNC(C)(C)[C@@H]4CC[C@@]3(C)[C@]1(C)CC2 (some centres not stated)
active

---

# Test system: T-47D breast
# TEST: NCI-60 one-dose screen, 48 h
# CONDITION INFO: 10 µM
About 83,000 compounds went through this panel and 20% of them were active in at least one assay; those are over-represented in the sample as a whole. The source made the active and inactive calls. The calls were made as follows: active = growth percent below 10; inactive = the rest.
Use one of these outcomes when replying: active, inactive

SMILES ENTRY | MEASUREMENT TARGET | CLASSIFICATION
O=C(O)CCCCCCCCCCN1C(=O)/C(=C/c2cnc(-c3ccccc3)s2)SC1=S | T-47D breast | inactive
O=C(CNc1nc(-c2ccccc2)cs1)Nc1ccccc1 | T-47D breast | active
COc1ccc2cc([C@H](C)C(=O)NCc3ccccc3)ccc2c1 | T-47D breast | inactive

Next:
Field: outcome | Entry: Cc1ccc(-c2nc3ccc(C(=O)N=Nc4c(O)[nH]c5ccc(Br)cc45)cc3[nH]2)cc1
inactive
